All figures here come from patent US20110311550A1.

- assayedTarget: HCV E1E2 antigen, isolate UKN2B1.1 (hepatitis C virus, isolate UKN2B1.1)
- methodNotes: ELISA, Fab on E1E2 antigen
Can you tell me OD 450 nm for the items I'm about to list?
Give your result in OD 450 nm as a bare value.

**Query** Which measured OD 450 nm value corresponds to Fab P6 (Fab, V domains shown) VH: EVQLLESGGGVVQPGKSLTVSCAASGFTFSTFTMHWVRQAPGKWLEWVAVISHDGGTEHYADSVTGRFTISRDNSKNTLHMQMNSLRLEDTAVYFCARGGPAYYLYNDVLTGYYNVVGDFWGQGTLVTVSS VL: ELIQSPGTLFLSSGERATLSCRASQSVSSSNLAWFQHKSGRAPRLLIYGASNRAPDIPDRFSGSGSGTDFTISISRLEPEDFAVYYCQRYGDSPPITFGQGTRLEIKR ?
**Result** 0.13

**Query** Which measured OD 450 nm value corresponds to Fab N1 (Fab, V domains shown) VH: VQLLEQSGPEVKKPGDSLRISCKMSGDSLVTTWIGWVRQKPGQGLEWMGIINPGDSSTNIYPGDSATRYGPSFQGQVTISIDKSTSTAYLQWNAVKPSDTGIYYCARHVPVPISGTFLWREREMHDFGYFDDWGQGTLVIVSS VL: ELTQSPGTLSLSPGERATLSCRASQSVSSSYLAWYQQKPGQAPRLLIYGASNRAAGIPDRFSGSGSGADFTLTISRLEPEDFAVYYCQQYGSSLITFGQGTRLEIKR ?
**Result** 0.33

**Query** Which measured OD 450 nm value corresponds to Fab U1 (Fab, V domains shown) VH: VQLLEQSGPEVKRPGTSVKMSCKISGGASITQAMSWVRQAPGQGLEWMGGITPIFGTVNYAQKILGRVTITADEDTVSLELSSLKSEDTAVYYCAREVNLKTWNLAHPNVFDVWGQGTMLTVSS VL: ELTQSPSSLSASVGDRVTITCRASQSISSFLNWYQQKPGKAPKLLIYAASSLQSGVPPRFSGSGSGTDFTLTISSLQPEDFATYYCQQSYSTPRTFGQGTKLEIKR ?
**Result** 0

**Query** Which measured OD 450 nm value corresponds to Fab R1 (Fab, V domains shown) VH: VQLLEQSGAEVKKPGASVKVSCKASGYTFSIYGVAWVRQAPGQGLEWMGWISPQNGDTHSPQKFQGRLTMTTDTSTSTAYMELRSLRSDDTAVYFCARDYGVNFGGGSEHNLDYWGRGTRVTVSS VL: ELTQSPLSLPVTPGEPASISCRSSYSLLHINGYKYLDWYLQRPGQSPQLLIYLGSNRAPGVPDRFSGSGSGTSFTLKISRVEAEDVGVYYCMQSLQAPWTFGQGTKVEMKR ?
**Result** 0.02
